System: HEK-293T
Assay: Multiplex assay against HEK293T
Type: toxicity, cell-based
Settings: human, 12 h, 10 µM, compound concentration 10 uM, replicate 1
Would you please tag the item Fulfilled when its Population Apoptotic (%) is 70% or above, and Not fulfilled when it is below?

Kindly determine if Population Apoptotic (%) recorded for CN1CCC[C@@H]1CCO[C@](C)(c1ccccc1)c1ccc(Cl)cc1.O=C(O)/C=C/C(=O)O [CLEMASTINE FUMARATE] is above or exactly 70%.
Fulfilled

Hi, just wondering whether C=CC(=O)Nc1cc2c(Nc3ccc(F)c(Cl)c3)ncnc2cc1OCCCN1CCOCC1.Cl.Cl [CANERTINIB DIHYDROCHLORIDE] shows Population Apoptotic (%) of 70% or higher.
Not fulfilled

Does Population Apoptotic (%) meet or surpass 70% for "Cc1nc(Nc2n[nH]c3c2CN(C(=O)N[C@H](CN(C)C)c2ccccc2)C3(C)C)c2sccc2n1" ?
Not fulfilled

API: above_or_equal(metric=Population Apoptotic (%), cutoff=70%) for item "Cc1nc(-c2ccc(-c3ccc(C(=O)N4CCc5cc6c(cc54)C4(CCN(C)CC4)CO6)cc3)c(C)c2)no1"
Fulfilled

Entry CC(C)NCC(O)COc1ccc(CCOCC2CC2)cc1.Cl (stereo not drawn) [BETAXOLOL HYDROCHLORIDE] : is its Population Apoptotic (%) no less than 70%?
Not fulfilled

Record "c1cn2cc(-c3ccc4cn[nH]c4c3)nc(Nc3ccc(N4CCOCC4)cc3)c2n1" ; criterion: Population Apoptotic (%) no lower than 70%. Met?
Not fulfilled
